# System: HCT-116 colon
# procedureDetails: NCI-60 one-dose screen, 48 h (100 = growth as untreated, 0 = no growth, -100 = all killed)
# conditionLabel: 10 µM
The panel holds about 83,000 compounds, 20% with a hit somewhere; the sample as a whole holds those more often.
endpoint: growth (%)

INSERT INTO assay_data (compound, assaysystem, endpoint, measured) VALUES
  ('O=S(=O)(NCCNc1nccc(-c2c(-c3ccc(F)cc3)nc3sccn23)n1)c1ccc2ccccc2c1', 'HCT-116 colon', 'growth', 61.8),
  ('COc1ccc(NC(=O)CSc2nc3ccccc3c(=O)n2CCc2ccccc2)cc1', 'HCT-116 colon', 'growth', 87.6),
  ('N#CCCN1C/C(=C/c2ccc(Cl)cc2)C(=O)/C(=C/c2ccc(Cl)cc2)C1', 'HCT-116 colon', 'growth', -54.5),
  ('COc1ccc(-c2cc(/C=C3\C(=O)Nc4ccc(OC)cc43)[nH]n2)cc1', 'HCT-116 colon', 'growth', 25.3),
  ('COc1ccc2nc3ccccc3c(NCCNCC(C)O)c2c1 (stereo not drawn)', 'HCT-116 colon', 'growth', 0.194),
  ('COc1ccc(S(=O)(=O)NCCCNc2nccc(-c3c(-c4ccc(F)cc4)nc4sccn34)n2)cc1', 'HCT-116 colon', 'growth', 42.1),
  ('CCOC(=O)CCC(NC(=O)c1ccc(N)cc1)C(=O)OCC (stereo not drawn)', 'HCT-116 colon', 'growth', 106),
  ('Cc1ccc2oc3nc(C)c(C(=O)NCc4ccccc4)cc3c(=O)c2c1', 'HCT-116 colon', 'growth', 60.6),
  ('CCCCN(CCCC)c1cc(C(=O)CCCCCN)c2ccccc2n1', 'HCT-116 colon', 'growth', -95.6),
  ('CN(C)N=Nc1nn(C(=O)Nc2ccc(Cc3ccccc3)cc2)c2ccccc12', 'HCT-116 colon', 'growth', 62.1),
  ('NC1(C(=O)O)CSSC1', 'HCT-116 colon', 'growth', 83.1),
  ('COc1cccc(Cn2c(-c3nonc3N)nc3ccccc32)c1', 'HCT-116 colon', 'growth', 18.3),
  ('Clc1ccc(Nc2ccnc(NCCNc3ccnc4cc(Cl)ccc34)n2)cc1', 'HCT-116 colon', 'growth', -71.3);

###

# System: M14 melanoma
# procedureDetails: NCI-60 one-dose screen, 48 h
# conditionLabel: 10 µM
About 83,000 compounds went through this panel and 20% of them were active in at least one assay; those are over-represented in the sample as a whole. The source made the active and inactive calls. The calls were made as follows: active = growth percent below 10; inactive = the rest.
Possible outcomes: active, inactive

INSERT INTO results (recordsmiles, assaysystem, class) VALUES
  ('COc1cc(C(=O)N2CCN(c3ccccc3OC)CC2)c(N)cc1OCCCN1CCN(c2ccccc2OC)CC1', 'M14 melanoma', 'inactive'),
  ('COc1ccc(-c2nn(-c3cccc(NC(=O)c4cc(C(F)(F)F)cc(C(F)(F)F)c4)c3)cc2-c2ccncc2)cc1Cl', 'M14 melanoma', 'inactive'),
  ('COc1ccc(/C(=C2\O[C@@H]([C@H]3COC(C)(C)O3)[C@H]3OC(C)(C)O[C@@H]23)c2cc(OC)c(OC)c(OC)c2)cc1O', 'M14 melanoma', 'active'),
  ('O=C(Nc1cccc(Br)c1)c1cc(=O)[nH]c2ccccc12', 'M14 melanoma', 'inactive'),
  ('FC(F)(F)c1ccc2nc(-c3nc(-c4ccccc4)n4ccccc34)[nH]c2c1', 'M14 melanoma', 'inactive'),
  ('N#Cc1c(C#N)c(SSc2c(C#N)c(C#N)c(N)n2-c2ccccc2)n(-c2ccccc2)c1N', 'M14 melanoma', 'inactive'),
  ('NC1(C(=O)O)CSSC1', 'M14 melanoma', 'active');

###

# Test system: UO-31 renal
# procedureDetails: NCI-60 one-dose screen, 48 h (100 = growth as untreated, 0 = no growth, -100 = all killed)
# conditionLabel: 10 µM
Compounds without any hit were thinned out: in the full panel of roughly 83,000, 20% have a hit.
Recorded growth values for a group of compounds are listed next.
endpoint: growth (%)

INSERT INTO measurements (compound, readoutunits, measured) VALUES
  ('COc1cc(-c2cc(/C=C/C(=O)c3ccc(F)c(F)c3)[nH]n2)cc(OC)c1OC', '%', 61.2),
  ('O=C(N/N=C/c1ccccc1O)C(O)(c1ccccc1)c1ccccc1', '%', 23.7),
  ('N#CCCN1C/C(=C/c2ccc(Br)cc2)C(=O)/C(=C/c2ccc(Br)cc2)C1', '%', -91.3),
  ('CCc1ccc2c(c1)N(CCO)C1=C(C(=O)OC1)C2c1cc(OC)c(OC)c(OC)c1 (stereo not given)', '%', 35.5),
  ('COc1ccc(S(=O)(=O)Nc2c(/C=C\c3cc(OC)c(OC)c(OC)c3)ccc(OC)c2O)cc1', '%', 39.9),
  ('Nc1ncn(C2OC(CO)C(O)C2O)c(=O)n1 (stereo not given)', '%', 0.167),
  ('Cc1cc(=O)n2nnc3c4ccccc4ccc3n12', '%', 46.8),
  ('CN(C)CCCn1c(=O)c2ccccc2c2cnc3[nH]ccc3c21', '%', 0.877),
  ('Cc1cccc(Cl)c1NC(=O)c1ccc2nc(NC(=O)NC3CCN(C)CC3)sc2c1', '%', 84.1),
  ('Cc1ccc(S(=O)(=O)Oc2ccc3c4c(c(=O)oc3c2)CCCCC4)cc1', '%', 64.6),
  ('COc1cc(/C=C2\CCCC3=C2N=C2SC=NN2C3c2cc(OC)c(OC)c(OC)c2)cc(OC)c1OC (stereo not given)', '%', 36),
  ('CS(=O)(=O)Nc1ccc(Nc2c3ccccc3nc3cc([N+](=O)[O-])ccc23)cc1', '%', 16.6),
  ('Clc1ccc(/C=C2\CCCC3=C2N=C2SC=NN2C3c2ccc(Cl)cc2)cc1 (stereo not given)', '%', 86.5),
  ('CC1CC(=O)OC(C)C1 (stereo not given)', '%', 94.1),
  ('O=C(O)CCCCSc1ncnc2nc[nH]c12', '%', 70);

###

# Test system: SK-MEL-5 melanoma
# procedureDetails: NCI-60 one-dose screen, 48 h
# conditionLabel: 10 µM
About 83,000 compounds went through this panel and 20% of them were active in at least one assay; those are over-represented in the sample as a whole. Calls of active or inactive are those of the source. Rule for the calls: active = growth percent below 10; inactive = the rest.
Possible outcomes: Yes for active, No for inactive

INSERT INTO results (molecule, class) VALUES
  ('Clc1ccc(Sc2nc(NC3CC3)nc(Sc3ccc(Cl)cc3)n2)cc1', 'No'),
  ('COc1ccc(-c2nnc(-c3c(-c4ccccc4)nc4ncccn34)o2)cc1OC', 'No'),
  ('Cc1c(Cl)cccc1NC(=O)c1sc2nc3c(cc2c1N)C(=O)CCC3', 'Yes'),
  ('COc1ccc(-c2csc(NC(=O)CSc3nc(C)c(-c4ccccc4)n3Nc3ccccc3)n2)cc1', 'No'),
  ('CN(C)c1ccc(N=C2C=CC(=O)c3ccccc32)cc1', 'Yes'),
  ('CC(=O)N1C/C(=C/c2ccc(Cl)cc2)C(=O)/C(=C/c2ccc(Cl)cc2)C1', 'Yes'),
  ('CC12O[C@H](C[C@@H](O)[C@H]1O)n1c3ccccc3c3c4c(c5c6ccccc6n2c5c31)C(=O)N(CCCN)C4=O', 'No'),
  ('Nc1ncnc2[nH]c(=O)[nH]c12', 'No'),
  ('CC(C)=CCc1cc(O)cc2c1OC(C=C(C)C)C1=C2C(=O)C2=C(C1=O)S(=O)(=O)CCN2 (stereo not given)', 'No'),
  ('COc1cc(-c2nn3c(/C=C4/C(=O)Nc5ccccc54)c(-c4ccc(C)cc4)nc3s2)cc(OC)c1OC', 'No');

###

# System: NCI-H522 lung
# procedureDetails: NCI-60 one-dose screen, 48 h
# conditionLabel: 10 µM
This is part of a sample that, as a whole, favours compounds with a hit. Of some 83,000 tested, about 20% had one in any assay. Active and inactive are the calls of the source. How the source made its calls: active means growth percent below 10; inactive means the rest.
Possible outcomes: active, inactive

INSERT INTO results (compound, class) VALUES
  ('CCN(CC)CCC(=O)Nc1cccc2c1C(=O)c1c(c(O)c3ccccc3c1O)C2=O', 'inactive'),
  ('Nc1ncnc2[nH]c(=O)[nH]c12', 'inactive'),
  ('Clc1cccc(-c2nc(-c3cccs3)no2)c1', 'inactive'),
  ('CCCCCCN1CCN(Cc2ccc(N(CC)CC)cc2)C(=O)C1=O', 'active'),
  ('CCCCN(CCCC)c1cc(C(=O)CCCCCN)c2ccccc2n1', 'inactive'),
  ('CCCCC(CCCCCC(CCCC)NCc1ccc2c(c1)OCO2)NCc1ccc2c(c1)OCO2 (centres undefined)', 'active'),
  ('CCCC(F)C(=O)O (centres undefined)', 'inactive'),
  ('CCN(CCCCCCN1CC(=O)N(CCCCCCN(CC)Cc2ccccc2OC)CC1=O)Cc1ccccc1OC', 'inactive'),
  ('O=c1c2ccccc2nc(SCCN2CCCCC2)n1CCc1ccccc1', 'inactive'),
  ('CC(C)C[C@H](NC(=O)[C@H](Cc1cccc2ccccc12)NS(=O)(=O)c1cccc2cccnc12)B(O)O', 'active'),
  ('Nc1c(C(=O)Nc2cccc3ccccc23)sc2nc3c(cc12)C(=O)CCC3', 'active'),
  ('COc1ccc(NC(=O)Cc2nc3nc4sc(C)c(C)c4c(=O)n3[nH]2)cc1', 'inactive'),
  ('CCOC(=O)C1(CC(C)C)CCOC1=O (centres undefined)', 'inactive'),
  ('COc1cc(Cl)cc(-c2nn(-c3cccc(NC(=O)Nc4ccc(Cl)c(Cl)c4)c3)cc2-c2ccncc2)c1', 'active'),
  ('O=C(CC(c1ccccc1)N1CCOCC1)c1ccccc1 (centres undefined)', 'inactive'),
  ('Cc1cc(Cc2cc(C)c(O)c(C)c2)cc(C)c1O', 'inactive'),
  ('O=C1OCC2=C1C(c1cccc(Br)c1)c1cc3c(cc1N2CCO)CCC3 (centres undefined)', 'active'),
  ('COc1ccc(-c2nc3sc(C4CC4)nn3c2/C=C2/C(=O)Nc3ccc(OC)cc32)cc1', 'inactive'),
  ('COc1cc(C(=O)/C=C/c2cc(-c3cc(OC)c(OC)c(OC)c3)n[nH]2)cc(OC)c1OC', 'active'),
  ('O=S(=O)(NCCCNc1nccc(-c2c(-c3ccc(F)cc3)nc3sccn23)n1)c1ccc(F)cc1', 'inactive'),
  ('C#Cc1ccc(-n2c(/C=C/c3ccc(O)c(OC)c3)nc3ncccc3c2=O)cc1', 'inactive'),
  ('CCN1Cc2c(/C=C/c3ccccc3)nc3ccc(OC)cc3c2N(c2cccc(Cl)c2)C1', 'inactive'),
  ('CC/C(=N\N=C(/CC)c1ccc(Br)cc1)c1ccc(Br)cc1', 'inactive'),
  ('N=c1nc(N)ncn1-c1ccccc1', 'inactive'),
  ('COc1ccc2nc3cc(Cl)ccc3c(NCCNCC(C)O)c2c1 (centres undefined)', 'active'),
  ('COc1ccc(/C(=C2/O[C@@H]([C@H]3COC(C)(C)O3)[C@H]3OC(C)(C)O[C@@H]23)c2cc(OC)c(OC)c(OC)c2)cc1O', 'inactive'),
  ('CN(C)CCN1C(=O)c2cccc3c(-c4ccc5ncn(C6CCCCC6)c5c4)ccc(c23)C1=O', 'active'),
  ('COc1ccc(-c2nn(-c3cccc(NC(=O)c4cc(C(F)(F)F)cc(C(F)(F)F)c4)c3)cc2-c2ccncc2)cc1Cl', 'inactive'),
  ('O=C(Cc1csc2nc(-c3ccc(Cl)cc3)cn12)N/N=C/c1ccccc1O', 'inactive'),
  ('COC(=O)C(=C\c1ccc2c(c1)OCO2)/C(=C/c1ccc2c(c1)OCO2)C(=O)OC', 'inactive'),
  ('COc1ccc2c(c1)sc1nc(-c3ccccc3)c(-c3ccsc3)n12', 'active'),
  ('COc1ccc2c(c1)sc1nc(-c3ccccc3)c(-c3cccnc3)n12', 'active'),
  ('O=C(Nc1nc(-c2ccccc2Cl)cs1)c1cc(-c2ccc(Cl)cc2)nc2ccc(Cl)cc12', 'inactive'),
  ('CCN(CC)CCNC(=O)c1ccc(NC(C)=O)cc1', 'inactive');
